- measuredOn: human melanin concentrating hormone receptor (MCHR1) (Homo sapiens (Human), UniProt Q99705, A5T/E4Q)
- Sequence (Q99705 whole entry E4Q/A5T): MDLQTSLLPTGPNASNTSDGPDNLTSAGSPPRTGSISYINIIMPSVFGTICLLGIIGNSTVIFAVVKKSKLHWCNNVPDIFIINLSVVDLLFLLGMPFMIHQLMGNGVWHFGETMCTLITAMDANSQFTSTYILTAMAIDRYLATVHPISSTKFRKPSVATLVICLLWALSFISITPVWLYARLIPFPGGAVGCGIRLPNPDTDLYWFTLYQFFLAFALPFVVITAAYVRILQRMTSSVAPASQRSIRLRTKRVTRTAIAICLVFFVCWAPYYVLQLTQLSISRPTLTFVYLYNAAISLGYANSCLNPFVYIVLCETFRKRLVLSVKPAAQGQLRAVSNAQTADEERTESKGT
- assayText: Radioligand binding assay for assessment of MCHR1 activity
- conditionLabel: competition with [Phe13,[125I]Tyr19]-MCH; membranes of HEK-293 cells expressing mutated hMCHR1
recordedMetric: Ki (nM)

[
  {
    "recordSmiles": "COc1cc(-n2ccc(-c3ccc(OC(F)(F)F)cc3)cc2=O)ccc1OCCO",
    "recordedValue": 3
  }
]

(1) COc1cc(-n2ccc(CNc3ccc(Cl)cc3)cc2=O)ccc1OCC(C)(C)O
(2) COc1cc(-n2ccc(CSc3ccc(Cl)cc3)cc2=O)ccc1OCC(C)(C)O
(3) COc1cc(-n2ccc(COc3ccccc3)cc2=O)ccc1OCC(C)(C)O
(4) COc1cc(-n2ccc(SCc3ccc(Cl)cc3)cc2=O)ccc1OCC(C)(C)O
(5) COc1cc(-n2ccc(-c3ccc(C(F)(F)F)cc3)cc2=O)ccc1OCC(C)(C)O
Q: Sort the compounds on Ki; start with the lowest figure. A complete answer lists every label in the requested sequence.
Result: 4, 5, 2, 1, 3
